Where do these numbers come from? They come from patent US20230256092A1.

tested on: human CCR8 (human) (UniProt P51685)
assay overview: cell-based or functional assay
property name: IC50 ratio (WT IC50/mutant IC50)
Would you mind answering with just the numeric figure?

Check out these entries, answers already filled in.
h10A11 (IGKV4-1/IGHV3-73 S100T) (antibody, name in Kabat numbering, V domains shown) VH: EVQLVESGGGLVQPGGSLKLSCAASGFAFNTYALYWVRQASGKGLEWVGRIRSKSNNYATYYADSVKDRFTISRDDSKNTAYLQMNSLKTEDTAVYYCTRARFYYTDYGYAMDYWGQGTLVTVSS VL: DIVMTQSPDSLAVSLGERATINCRSSKSLLHSNGNTYLYWYQQKPGQPPKLLIYRMSNLASGVPDRFSGSGSGTDFTLTISSLQAEDVAVYYCMQHLEYPLTFGQGTKLEIKR: 0.64
h10A11 (IGKV4-1/IGHV3-73 G100cA) (antibody, name in Kabat numbering, V domains shown) VH: EVQLVESGGGLVQPGGSLKLSCAASGFAFNTYALYWVRQASGKGLEWVGRIRSKSNNYATYYADSVKDRFTISRDDSKNTAYLQMNSLKTEDTAVYYCTRARFYYSDYAYAMDYWGQGTLVTVSS VL: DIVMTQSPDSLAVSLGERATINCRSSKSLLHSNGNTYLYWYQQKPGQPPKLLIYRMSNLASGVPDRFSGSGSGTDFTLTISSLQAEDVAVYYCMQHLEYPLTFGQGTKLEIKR: 0.07
h10A11 (IGKV4-1/IGHV3-73 D65E) (antibody, name in Kabat numbering, V domains shown) VH: EVQLVESGGGLVQPGGSLKLSCAASGFAFNTYALYWVRQASGKGLEWVGRIRSKSNNYATYYADSVKERFTISRDDSKNTAYLQMNSLKTEDTAVYYCTRARFYYSDYGYAMDYWGQGTLVTVSS VL: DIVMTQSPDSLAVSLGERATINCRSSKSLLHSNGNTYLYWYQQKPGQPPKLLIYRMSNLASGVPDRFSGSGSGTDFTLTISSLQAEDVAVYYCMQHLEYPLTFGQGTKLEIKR: 1.3

# evaluate next
Data request: Bench note: what IC50 ratio (WT IC50/mutant IC50) did h10A11 (IGKV4-1/IGHV3-73 Y55F) (antibody, name in Kabat numbering, V domains shown) VH: EVQLVESGGGLVQPGGSLKLSCAASGFAFNTYALYWVRQASGKGLEWVGRIRSKSNNFATYYADSVKDRFTISRDDSKNTAYLQMNSLKTEDTAVYYCTRARFYYSDYGYAMDYWGQGTLVTVSS VL: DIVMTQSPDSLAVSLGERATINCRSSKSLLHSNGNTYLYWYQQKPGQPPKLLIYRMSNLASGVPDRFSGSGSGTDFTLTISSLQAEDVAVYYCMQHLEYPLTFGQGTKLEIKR show?
Data returned: 0.47
